- Experimental Protocol: small-molecule microarray binders of probe aShh, primary screen, biochemical, biotinylated probe, 635/667 nm fluorescence (AID 1114);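 further: probe is biotin-labelled aShh protein from a stem cell growth factor screen; measures binding of labelled protein to compounds printed on the slide; score merges feature fluorescence at 667 nm with signal-to-noise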
- Test Context: higher = more signal
Please provide measured composite z-score for the entries that follow.
// print number alone

Notebook: `CO[C@H]1COC(=O)[C@H](C)NC(=O)[C@@H](C)COC(=O)CC=C[C@@H]1C` , composite z-score read as 0.432

The compound identified as `CCCCC(=C=CC[C@H](O)c1ccccc1OCCO)C[C@H](O)COCc1ccccc1` registered its composite z-score at -0.138

Lookup result for N#Cc1ccc(NN2C(C(O)c3cccc4ccccc34)C=CC3C(=O)N(c4ccccc4)C(=O)C32)cc1 (stereo not drawn) ; measured composite z-score: 0.23

get_value(item= `CCCCCCc1nc(CCCc2cc3c(c(CCCCCC)n2)[Si](C(C)C)(C(C)C)O[C@H]3c2ccccc2)cc2c1[Si](C(C)C)(C(C)C)O[C@H]2c1ccccc1` , readout=composite z-score) returns -0.0626

For `COC(=O)[C@]1(CO)N=C(c2ccc(OCCCO)cc2)O[C@@H]1c1ccccc1N=[N+]=[N-]` the compound record lists composite z-score as -0.226

The reported composite z-score of the compound `COCCOC(=O)N1C(=O)[C@@]2(c3ccccc31)[C@H](C(N)=O)[C@H]1C(=O)O[C@H](c3ccccc3)[C@H](c3ccccc3)N1[C@@H]2c1ccccc1OCCO` was -0.0035

Quick note, composite z-score for `C[C@@H]1C=CCC(=O)OC[C@H](C)C(=O)OC[C@H]2O[C@H]1C=C[C@H]2O` landed at -0.0793

Record summary for `COC(=O)C1=C(C)[C@@H](O)[C@@H](C)[C@H](c2c(OC)c(OC)c(C)c(OC)c2OC)O1` : reported composite z-score = -0.0011

###

- Test system: Neuregulin-1 EGF-like domain
- Experimental Protocol: binders of neuregulin-1 EGF-like domain, primary screen, biochemical, small-molecule microarray, 635 nm fluorescence (AID 1081);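 further: binding of the protein to compounds printed on small-molecule microarray slides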
- Test Context: small-molecule microarray binding, higher = more signal
Record form. Attribute: composite z-score. Fill in for each entry.
Keep it simple and answer with nothing but the number.

In plain terms, `C#CCCCON=C1C[C@@H](O)[C@@H](O)[C@@H]2[C@@H]3C(=O)N(Cc4ccccc4)C(=O)[C@@H]3CC[C@H]12` has a documented composite z-score of -0.0787

Lookup result for `CO[C@@H]1COC(=O)CCC[C@@H](C)[C@H](OC)COC(=O)CCC[C@H]1C` ; measured composite z-score: 0.176

Entry CCOC(=O)C1=CCC(c2cc3ccccc3[nH]2)NC1 (stereo not given) — recorded composite z-score = 1.13

composite z-score recorded for this molecule, `CCc1cc2c(nc1CC)CCN(CCC(C)=NO[C@@H](C)c1cc(-c3c(C)cc(C)cc3C)no1)C2` , is -0.0858

The value of composite z-score measured for the molecule `Cc1ccc(S[C@]2(C(=O)O)CC(=O)N(Cc3ccccc3)[C@@H]2c2ccc(CO)cc2I)cc1` turned out to be 1.03

###

Could you please report measured composite z-score for the items listed next?
- Tgt: Streptavidin (Streptomyces avidinii) (UniProt P22629)
- Sequence (P22629 whole entry, looked up): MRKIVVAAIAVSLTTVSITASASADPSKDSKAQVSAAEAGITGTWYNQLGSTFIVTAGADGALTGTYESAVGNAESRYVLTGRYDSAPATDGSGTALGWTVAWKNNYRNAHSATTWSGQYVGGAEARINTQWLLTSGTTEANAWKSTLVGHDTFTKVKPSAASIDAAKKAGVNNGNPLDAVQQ
- Experimental Protocol: streptavidin binders on small-molecule microarray, primary screen, artefact control for SMM compound annotation, biophysical, 635/667 nm fluorescence (AID 1147);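 further: signal reflects streptavidin binding to arrayed compounds as a control protein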
- Test Context: streptavidin binding, higher = more signal
Please respond with just the number, no unit label.

GET /value?item= `CC(C)=NOCc1ccc(-c2cc(-c3ccccc3)no2)cc1` &field=composite z-score returns 0.06

Value of measured composite z-score for the entry `O=C1[C@H]2[C@H]3[C@H](O)[C@H](O)CC(=NOCc4ccccc4)[C@H]3CC[C@H]2C(=O)N1c1cccc(Oc2ccccc2)c1` : 0.293

For `CO[C@@H]1COC(=O)[C@H](C)NC(=O)[C@@H](C)COC(=O)CCC[C@H]1C` the compound record lists composite z-score as -0.185

Value of measured composite z-score for the entry `CCCC=C(CCC)[C@@H](NC(=O)c1ccc(-c2ccccc2)cc1)c1ccc(C(=O)OC)cc1` : 1.09

Documented composite z-score of `CCCC[C@H]1OB(O)C[C@H]2C1=C(C)C[C@H]1C(=O)N(C)C(=O)[C@H]12` : -0.174

###

Please respond with reported z-score for every item in the list.
- Experimental Protocol: E. coli growth modulation, two-sided OD650, primary screen, E. coli filamentation project, strain DRC41, 24 h (AID 1093);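 further: MC1000 strain lacking acrAB efflux and sulA so SOS filamentation is blocked; test concentration not given here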
- Test Context: OD650, 24 h, higher = more signal, called active from +8 up or from −8 down
Give the value as a plain number.

Notebook: `NC(=O)NCC#Cc1ccc2c(c1)[C@]1(C(=O)N2)[C@H](c2ccc(O)cc2)N2[C@H](c3ccccc3)[C@H](c3ccccc3)OC(=O)[C@H]2[C@@H]1C(=O)N1CCCCCCC1` , z-score read as 0.951

Just so you know, measured z-score for `C=C(CCCC)C(=O)CC[C@@H](OC(C)=O)c1cccc(OCCO)c1` came out at -0.139

Note to self: z-score recorded for `CO[C@@H]1COC(=O)CCC[C@@H](C)[C@H](OC)COC(=O)CCC[C@H]1C` was -0.0526

Short answer for `C=CC[C@@H]1C=C[C@H](ON=Cc2ccc(C(=O)N3[C@H](c4ccc(C)cc4)[C@@H](C)CC[C@H]3C(=O)OC)cc2)[C@@H](CO)O1` : z-score was 1.35

# z-score of Cc1ccc(C2CC=C(C(=O)O)CN2S(=O)(=O)c2ccc(C)cc2)cc1 (centres undefined) = -1.16

Form field z-score, entry `CCOC(=O)C1=CC[C@H]2C(=O)N(CC)C(=O)[C@@H]12` : -0.233

Value of measured z-score for the entry `COc1ccccc1CN1C(=O)c2ccccc2[C@@]2(Cc3ccccc3N(C(C)C)C2=O)[C@@H]1c1ccc(CO)cc1` : 1.26

Please fill in: z-score reported for COC(=O)[C@@H]1CC[C@H](C)[C@@H](c2ccc(C)cc2)N1C(=O)c1ccc(C=NOC(C)CN2CCCCc3nc(C)c(C)cc32)cc1 (some centres undefined) = 0.829

Form: compound = CCOC(=O)[C@H](CC(C)C)NC(=O)CCC1CC(OC(=O)NCCc2ccc(F)cc2)CC2(CCCC(COC(=O)NCc3ccccc3)O2)O1 (some centres undefined) ; z-score = -0.206

z-score for `O=C(CS)NCCCCCNC(=O)[C@@H]1C[C@@H]2C(=O)N[C@@H](Cc3ccccc3)C(=O)N2[C@@H]1c1ccc(O)cc1` is 1.28

What the record says about `C=CC[C@@H]1C=C[C@H](ON=C2c3cc(OC)ccc3O[C@H](c3cccc(OC)c3)[C@H]2O)[C@@H](CO)O1` : z-score is 0.686

// recorded z-score for CC(CCN1CCc2nc(-c3ccccc3)c(-c3ccccc3)cc2C1)=NOC(C)CN1CCCCc2nc(C)c(C)cc21 (centres undefined) : 0.74

Sample `[N-]=[N+]=NCc1ccccc1C[C@]1(C(=O)NCc2ccccc2)N=C(c2ccc(OCCCO)cc2)O[C@H]1c1ccccc1N=[N+]=[N-]` ; z-score observed: 0.368

Query COCCNC(=O)OCC1CCCC2(CC(OC(=O)NCCc3ccc(F)cc3)CC(CCC(=O)N[C@@H](C)C(=O)OC)O2)O1 (some centres undefined) yields z-score of 0.0947

###

- Tgt: Torsin-1A-interacting protein 1 (Homo sapiens) (UniProt Q5JTV8)
- Sequence (Q5JTV8 whole entry, looked up): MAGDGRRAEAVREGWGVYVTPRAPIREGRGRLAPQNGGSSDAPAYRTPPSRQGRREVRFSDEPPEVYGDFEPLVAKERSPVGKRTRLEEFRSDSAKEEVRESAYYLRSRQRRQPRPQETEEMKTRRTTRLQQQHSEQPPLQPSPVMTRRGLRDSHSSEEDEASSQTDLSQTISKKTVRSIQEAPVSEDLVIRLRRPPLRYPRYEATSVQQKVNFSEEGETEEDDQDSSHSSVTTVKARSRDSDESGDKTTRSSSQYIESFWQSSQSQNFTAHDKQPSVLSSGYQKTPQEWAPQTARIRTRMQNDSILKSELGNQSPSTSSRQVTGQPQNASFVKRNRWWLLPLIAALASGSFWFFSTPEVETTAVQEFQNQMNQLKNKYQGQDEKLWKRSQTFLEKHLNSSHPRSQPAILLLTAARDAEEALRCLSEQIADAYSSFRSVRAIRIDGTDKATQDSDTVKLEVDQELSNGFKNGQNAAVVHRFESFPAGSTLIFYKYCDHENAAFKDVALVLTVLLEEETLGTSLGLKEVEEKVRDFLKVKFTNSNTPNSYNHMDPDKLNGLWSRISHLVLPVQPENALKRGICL
- Experimental Protocol: LAP1 binders from COS7 cell lysate, primary screen, small-molecule microarray, 635/667 nm fluorescence (AID 1116)
- Test Context: COS7-hLAP1 lysate binding, 635 nm fluorescence, higher = more signal
Binning of composite z-score into classes: lower bin (below 0.3), middle bin (0.3 to below 0.6), upper bin (0.6 or more)

Hi, small favor: classify N#Cc1ccc(NN2C(C(O)c3cccc4ccccc34)C=CC3C(=O)N(c4ccccc4)C(=O)C32)cc1 (stereo not drawn) by its composite z-score when you get a moment. middle bin

# classify by composite z-score band: COC(=O)[C@H](C)NC(=O)CCC1CC(OC(=O)NCc2cccc3ccccc23)CC2(CCCC(COC(=O)NCCc3ccc(Cl)cc3)O2)O1 (stereo partly drawn) middle bin

Looking at `O=C1[C@H]2[C@H]3[C@H](O)[C@H](O)CC(=NOCc4ccccc4)[C@H]3CC[C@H]2C(=O)N1c1cccc(Oc2ccccc2)c1` , which class would you pick? upper bin

For the record CC(CCN1CCCCc2nc(C)c(C)cc21)=NOC(C)CN1CCCc2nc(C)c(C)cc21 (stereo not drawn) , report the class its composite z-score corresponds to. upper bin

Pick a category. Item: `O=C1C[C@@H](O)[C@@H](O)[C@@H]2[C@@H]3C(=O)N(c4ccc(F)cc4F)C(=O)[C@@H]3CC[C@@H]12` middle bin

The entry to classify is `COC(=O)CC=C[C@H](C)[C@@H](OCc1ccccc1Br)C(C)C` ; which class holds it? lower bin

Lab log: `CC(C)=CCCC(C)=CCON=C1[C@H]2CCn3c(=O)n(Cc4cc5c(cc4Cl)OCO5)c(=O)n3[C@H]2[C@H](O)[C@@H]2O[C@H]12` — assign composite z-score category upper bin

Could you place `CCCC=C(CCC)[C@@H](NC(=O)c1ccc(-c2ccccc2)cc1)c1ccc(C(=O)OC)cc1` in its proper category? Many thanks. middle bin

Input `CC(C)=CCCC(C)=CCON=C1[C@H]2CCn3c(=O)n(C)c(=O)n3[C@H]2[C@H](O)[C@@H]2O[C@H]12` ; output its category upper bin

Which of the defined bands does the recorded composite z-score of `CC(CCN1CCc2nc(-c3ccccc3)c(-c3ccccc3)cc2C1)=NOC[C@@H](C)[C@H](OCc1ccccc1)C(C)C` sit within? lower bin

Bin? `COc1ccc(OC[C@H]2Cc3c(-c4ccccc4)nc4c(c3CO2)CN(CCOc2ccccc2)CC4)cc1` middle bin

Please report the category associated with `CCOC(=O)NN=C1C[C@@H](O)[C@@H](O)[C@@H]2[C@@H]3C(=O)N(C(C)(C)C)C(=O)[C@@H]3CC[C@@H]12` , nothing else. lower bin

For the record `CCOC(=O)CCN1C(=O)[C@H]2[C@H]3[C@H](O)[C@H](O)CC(=NOCc4ccccc4)[C@@H]3CC[C@H]2C1=O` , report the class its composite z-score corresponds to. lower bin

Category of `CCOC(=O)CCN1C(=O)[C@H]2[C@H]3[C@H](O)[C@H](O)CC(=O)[C@H]3CC[C@H]2C1=O` : upper bin

Field: class (composite z-score) — entry: `CC(=O)OC[C@H]1O[C@H](CC=NOC[C@@H](C)[C@H](OCc2ccccc2)C(C)C)C=C[C@@H]1OC(C)=O` lower bin
